# System: IL-6-induced adhesion of U937 monocytic cells to HT-29 cells
# PROCEDURE_TEXT: IL-6-induced colonic epithelial cell adhesion assay
# Type: cell-based, human
# RECORDED_CONDITIONS: Homo sapiens, Epithelial cell, 10 uM; U937 adhesion to HT-29 cells, IL-6-induced
I'd be grateful if you could share measured inhibition at 10 µM for these entries.

Q) Which inhibition at 10 µM value belongs to COC(=O)c1c2c(c3ccc(C(F)(F)F)cc3c1O)OC(C)(C)C=C2 [14c] ?
A) 39.3%

Q) Try CC1(C)C=Cc2c(C(=O)OCCN3CCOCC3)c(O)c3ccccc3c2O1 [6d] next.
A) 26.5%

Q) Would you kindly repeat that for CNC(=O)c1c2c(c3ccccc3c1O)OC(C)(C)C=C2 [6l] ?
A) 12.2%

Q) Another molecule: CN1CCC[C@@H]1COC(=O)c1c2c(c3ccccc3c1O)OC(C)(C)C=C2 [6f]
A) 38.2%

Q) Same again, this time with CN(C)CCOC(=O)c1c2c(c3ccccc3c1O)OC(C)(C)C=C2 [6a]
A) 35.5%

Q) // next record CC1(C)C=Cc2c(C(=O)OCCN3CCOCC3)c(O)c3cc(C(F)(F)F)ccc3c2O1 [15c]
A) 50.3%

Q) Okay, and CC1(C)C=Cc2c(C(=O)OCCN3CCOCC3)c(O)c3ccc(F)cc3c2O1 [15d] ?
A) 75.6%

Q) Try the molecule COC(=O)c1c2c(c3ccc(C)cc3c1O)OC(C)(C)C=C2 [14b]
A) 23.4%

Q) Next entry: COC(=O)c1c2c(c3cc(F)ccc3c1O)OC(C)(C)C=C2 [14d]
A) 28%

Q) Would you mind doing CCNC(=O)c1c2c(c3ccccc3c1O)OC(C)(C)C=C2 [6m] as well?
A) 25.8%

Q) Next molecule: COC(=O)c1c2c(c3ccccc3c1O)OC(C)(C)C=C2 [compound 1, mollugin]
A) 40.8%

Q) Query CN1CCN(C(=O)c2c3c(c4ccccc4c2O)OC(C)(C)C=C3)CC1 [6n] next
A) 34.2%

Q) // query: CC1(C)C=Cc2c(C(=O)OCCN3CCOCC3)c(O)c3cc(F)ccc3c2O1 [15a]
A) 61.1%

Q) Param item: CCN1CCN(C(=O)c2c3c(c4ccccc4c2O)OC(C)(C)C=C3)CC1 [6o]
A) 9.4%

Q) Further, for CC1(C)C=Cc2c(C(=O)OCCc3ccccn3)c(O)c3ccccc3c2O1 [6j] ?
A) 33.6%

Q) Thanks! And COC(=O)c1c2c(c3ccc(F)cc3c1O)OC(C)(C)C=C2 [14a] ?
A) 59.4%

Q) Would you kindly repeat that for CC1(C)C=Cc2c(C(N)=O)c(O)c3ccccc3c2O1 [6k] ?
A) 39.1%

Q) Try the molecule CN1CCC(OC(=O)c2c3c(c4ccccc4c2O)OC(C)(C)C=C3)CC1 [6g]
A) 38.9%
